Hello, the source for this data is patent US20070123592A1, in case you need it.

system_name: Bcl-xL/Bak complex (Homo sapiens)
Sequence (Q07817 whole entry, species assumed, one chain of several): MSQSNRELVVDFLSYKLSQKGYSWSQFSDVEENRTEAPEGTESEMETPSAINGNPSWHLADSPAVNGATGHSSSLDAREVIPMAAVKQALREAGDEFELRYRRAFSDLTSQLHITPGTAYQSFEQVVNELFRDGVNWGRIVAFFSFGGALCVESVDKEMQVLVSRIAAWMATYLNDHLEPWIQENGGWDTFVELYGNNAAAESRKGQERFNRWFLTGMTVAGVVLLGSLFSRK
procedure_summary: Fluorescence polarization competition assay (displacement of fluorescein-labeled Bak peptide from Bcl-xL)
conditions: 15 nM Fl-Bak, 184 nM Bcl-xL, 10 mM PBS pH 7.4, 25° C.; mean of three independent experiments; read-out: K1 ± S.D.
quantity_kind: Ki (µM)

In the examples that follow, each entry is paired with its recorded Ki.
>  <compound>
CCN(CC)C(=O)c1ccc(C(=O)N[C@@H](C)C(=O)OC)c(OC(C)C)c1 [Compound 3-37]

>  <Ki / µM>
2.44

$$$$
>  <compound>
CC(C)C[C@H](NC(=O)c1ccc(C(=O)N(C(C)C)C(C)C)cc1OC(C)C)C(=O)O [Compound 3-10]

>  <Ki / µM>
0.839

$$$$
>  <compound>
COC(=O)[C@@H](NC(=O)c1ccc(C(=O)N(CC(C)C)CC(C)C)cc1OC(C)C)C(C)C [Compound 3-41]

>  <Ki / µM>
138

$$$$
>  <compound>
COC(=O)[C@H](CC(C)C)NC(=O)c1ccc(C(=O)N(C(C)C)C(C)C)cc1OC [Compound 3-26]

>  <Ki / µM>
1.85

$$$$
>  <compound>
COC(=O)[C@H](CC(C)C)NC(=O)c1ccc(C(=O)N(CC(C)C)CC(C)C)cc1OC(C)C [Compound 3-40]

>  <Ki / µM>
8.36

$$$$
>  <compound>
CC(C)C[C@H](NC(=O)c1ccc(C(=O)N(c2ccccc2)c2ccccc2)cc1OC(C)C)C(=O)O [Compound 3-43]

>  <Ki / µM>
780

$$$$
>  <compound>
COC(=O)[C@H](C)NC(=O)c1ccc(C(=O)N(C)C)cc1OC(C)C [Compound 3-33]

>  <Ki / µM>
8.34

$$$$
>  <compound>
COC(=O)[C@H](C)NC(=O)c1ccc(C(=O)N(CC(C)C)CC(C)C)cc1OC(C)C [Compound 3-39]

>  <Ki / µM>
8.76

$$$$
>  <compound>
CC(C)Oc1cc(C(=O)N(C)C)ccc1C(=O)N[C@@H](Cc1ccccc1)C(=O)O [Compound 3-35]

>  <Ki / µM>
8.92

$$$$

[a] CC(C)C[C@H](NC(=O)c1ccc(C(=O)N(C(C)C)C(C)C)cc1NC(C)C)C(=O)O [Compound 3-17]
[b] CCN(CC)C(=O)c1ccc(C(=O)N[C@@H](CC(C)C)C(=O)OC)c(OC(C)C)c1 [Compound 3-38]
[c] CC(C)Oc1cc(C(=O)N(c2ccccc2)c2ccccc2)ccc1C(=O)N[C@@H](C)C(=O)O [Compound 3-42]
q: Please rank these compounds by Ki in descending order. # answer = labels listed in requested order
a: c, b, a
(c: 260 µM, b: 11.4 µM, a: 3.31 µM)
